Below are Ki values recorded for UniProt:P07858.
Experimental endpoint: Ki (µM)

Here are 2 compounds together with their reported answers.
CC(C)C[C@H](NC(=O)OCc1ccccc1)C(=O)N[C@@H](CCc1ccccc1)C(=O)COCc1ccccc1 :: 119
CCC(C)[C@H](NC(=O)OCc1ccccc1)C(=O)N[C@@H](CCc1ccccc1)C(=O)CO (some centres undefined) :: 32.2

1 = CC(C)C[C@H](NC(=O)OCc1ccccc1)C(=O)N[C@@H](CCc1ccccc1)C(=O)CO
2 = CCC(C)[C@H](NC(=O)c1cccc(CN)c1)C(=O)N[C@@H](CCc1ccccc1)C(=O)CO (some centres undefined)
Exercise: // select label with min value of measured Ki from [ 1 , 2 ] Please reply using the label of the selected record.
Key: 2
